B1: INTS3 (parent)
chain: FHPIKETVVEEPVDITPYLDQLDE

variants of: B1; assay: protein stability index of a GFP-peptide fusion (GPS, HEK-293T) (PSI 1-6); higher = more stable; settings: c terminus: a fixed tail appended;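 further: lentivirally expressed fusions sorted by FACS into six bins by GFP to DsRed ratio, PSI derived from sequencing read proportions per bin multiplied by bin number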
property_label: protein stability index
Answers are plain numbers.

L22Q : 4.11
V8G : 3.91
P17F : 3.08
V9Y : 2.97
K5C : 3.99

Would you kindly look at the next entry?
Prompt line: protein stability index lookup needed for "P17E" , thanks.
Response line: 3.89
